Test system: Primary human T-cells
Assay: Primary Human T-Cell Proliferation Assay Stimulated with IL-2 (CellTiter-Glo)
Assay type: cell-based
Settings: primary human T-cell proliferation stimulated with IL-2; read-out: IC50, Example 42
Method: The activity of the active compounds of the invention may further be characterized by assaying the effect of the 2,4-substituted pyrimidinediamine compounds described herein on the proliferative response of primary human T-cells. […] The primary human T-cells are incubated with the 2,4-substituted pyrimidinediamine compounds in the presence of IL-2 for 72 hours and at the assay endpoint intracellular ATP concentrations are measured to assess cell viability. […]
recordedMetric: IC50 (nM)
Form entry: value (nM) — number only.

[
  {
    "smilesRepresentation": "Cc1cc(COc2ccc(Nc3nc(Nc4ccc(F)c(S(N)(=O)=O)c4)ncc3F)cc2C)no1",
    "testedOn": "Primary human T-cells",
    "IC50 / nM": 2040
  },
  {
    "smilesRepresentation": "Cc1ccc(Nc2ncc(F)c(Nc3ccc(NC(=O)CC#N)cc3)n2)cc1S(N)(=O)=O",
    "testedOn": "Primary human T-cells",
    "IC50 / nM": 1060
  },
  {
    "smilesRepresentation": "CCN(CC)CCNS(=O)(=O)c1ccc(Nc2ncc(F)c(Nc3ccc(OCc4nc(C)no4)cc3)n2)cc1",
    "testedOn": "Primary human T-cells",
    "IC50 / nM": 64.4
  }
]

Query molecule follows.
Any idea what its IC50 is? The molecule is `Cc1cc(COc2cccc(Nc3nc(Nc4ccc(C)c(S(N)(=O)=O)c4)ncc3F)c2)no1` 1330

###

test system: Primary human T-cells; experiment: Primary Human T-Cell Proliferation Assay Stimulated with IL-2 (CellTiter-Glo); type: cell-based; details: primary human T-cell proliferation stimulated with IL-2; read-out: IC50, Example 42
recordedMetric: pIC50
Quick note: pIC50 means taking -log10 of the concentration in moles per liter.

[
  {
    "molecule": "Cc1cc(COc2ccc(Nc3nc(Nc4cccc(S(N)(=O)=O)c4)ncc3F)cc2C)no1",
    "pIC50": 6.34
  },
  {
    "molecule": "Cc1ccc(Nc2ncc(C)c(Nc3ccc(CCC#N)cc3)n2)cc1S(N)(=O)=O",
    "pIC50": 7.34
  },
  {
    "molecule": "CNS(=O)(=O)c1cc(Nc2ncc(C)c(Nc3ccc(OCc4ccccn4)cc3)n2)ccc1C",
    "pIC50": 7.54
  },
  {
    "molecule": "Cc1cc(Nc2nc(Nc3ccc(C)c(S(N)(=O)=O)c3)ncc2F)ccc1OC(C)C(N)=O (racemic)",
    "pIC50": 6.20
  }
]

Data request, read-out pIC50, for `NS(=O)(=O)c1ccc(Nc2ncc(F)c(Nc3ccc(-c4ccccn4)c(OCF)c3)n2)cc1` 6.30

Cool, now Cc1ccc(Nc2ncc(F)c(Nc3ccc(OC(C)C(N)=O)cc3)n2)cc1S(N)(=O)=O (centres unmarked) 6.25

###

test system: Primary human T-cells; test: Primary Human T-Cell Proliferation Assay Stimulated with IL-2 (CellTiter-Glo); format: cell-based; settings: Homo sapiens, T-cell, primary human T-cells stimulated with IL-2, proliferation; read-out: IC50, Example 42
Cut-off 600 nM on IC50: below means yes, at or above means no.

Known results for compounds:
[
  {
    "smilesRepresentation": "Cc1ccc(Nc2ncc(F)c(Nc3ccc(-c4cnco4)cc3)n2)cc1S(N)(=O)=O",
    "testedOn": "Primary human T-cells",
    "labelClass": "yes"
  },
  {
    "smilesRepresentation": "NS(=O)(=O)c1cccc(Nc2ncc(F)c(Nc3ccc4ncccc4c3)n2)c1",
    "testedOn": "Primary human T-cells",
    "labelClass": "yes"
  },
  {
    "smilesRepresentation": "NS(=O)(=O)c1cccc(Nc2ncc(F)c(Nc3ccc(CCCO)cc3)n2)c1",
    "testedOn": "Primary human T-cells",
    "labelClass": "yes"
  },
  {
    "smilesRepresentation": "Cc1ccc(Nc2ncc(F)c(Nc3ccc(CO)cc3)n2)cc1S(N)(=O)=O",
    "testedOn": "Primary human T-cells",
    "labelClass": "yes"
  },
  {
    "smilesRepresentation": "C#CCNc1ccc(Nc2nc(Nc3ccc(C)c(S(N)(=O)=O)c3)ncc2F)cc1",
    "testedOn": "Primary human T-cells",
    "labelClass": "yes"
  },
  {
    "smilesRepresentation": "Cc1cc(Nc2nc(Nc3ccc(S(N)(=O)=O)cc3)ncc2F)cc(C)c1N1CCN(C)CC1",
    "testedOn": "Primary human T-cells",
    "labelClass": "no"
  },
  {
    "smilesRepresentation": "NS(=O)(=O)c1cccc(Nc2ncc(F)c(Nc3ccc(CCCCO)cc3)n2)c1",
    "testedOn": "Primary human T-cells",
    "labelClass": "yes"
  },
  {
    "smilesRepresentation": "NS(=O)(=O)c1ccc(Nc2ncc(F)c(Nc3ccc(-c4cnco4)cc3)n2)cc1",
    "testedOn": "Primary human T-cells",
    "labelClass": "no"
  }
]

Now for another entry.
Determine if `Cc1ccc(Nc2ncc(F)c(Nc3ccc(C)c(S(N)(=O)=O)c3)n2)cc1S(N)(=O)=O` shows IC50 strictly lower than 600 nM. no

###

system: Primary human T-cells; experiment: Primary Human T-Cell Proliferation Assay Stimulated with IL-2 (CellTiter-Glo); assay type: cell-based; details: primary human T-cell proliferation stimulated with IL-2; read-out: IC50, Example 42
Reported pIC50 is given for each of the following compounds.
Scale for pIC50: -log10 of concentration given in mol/L; no unit attached.

Please review the following examples before continuing.
[
  {
    "compound": "Cc1noc(COc2ccc(Nc3nc(Nc4ccc(S(N)(=O)=O)cc4)ncc3F)cc2)n1 [Compound I-231]",
    "pIC50": 6.54
  },
  {
    "compound": "Cc1nc(COc2ccc(Nc3nc(Nc4cccc(S(N)(=O)=O)c4)ncc3F)cc2)no1",
    "pIC50": 6.98
  },
  {
    "compound": "CN1CCN(c2ccc(Nc3ncc(F)c(Nc4ccc(OCC#N)c(F)c4)n3)cc2S(N)(=O)=O)CC1",
    "pIC50": 7.02
  },
  {
    "compound": "Cc1noc(COc2ccc(Nc3nc(Nc4ccc(F)c(S(N)(=O)=O)c4)ncc3F)cc2)n1",
    "pIC50": 6.70
  }
]

From here, focus on the item given below.
Data request, read-out pIC50, for `Cc1ccc(Nc2ncc(F)c(Nc3ccc(OCc4ccncc4)cc3)n2)cc1S(N)(=O)=O` 7.00
